C1 score (inhibition of Abl human) values, listed per item
Test System: Abl (h) (Homo sapiens)
Sequence (P00519 whole entry): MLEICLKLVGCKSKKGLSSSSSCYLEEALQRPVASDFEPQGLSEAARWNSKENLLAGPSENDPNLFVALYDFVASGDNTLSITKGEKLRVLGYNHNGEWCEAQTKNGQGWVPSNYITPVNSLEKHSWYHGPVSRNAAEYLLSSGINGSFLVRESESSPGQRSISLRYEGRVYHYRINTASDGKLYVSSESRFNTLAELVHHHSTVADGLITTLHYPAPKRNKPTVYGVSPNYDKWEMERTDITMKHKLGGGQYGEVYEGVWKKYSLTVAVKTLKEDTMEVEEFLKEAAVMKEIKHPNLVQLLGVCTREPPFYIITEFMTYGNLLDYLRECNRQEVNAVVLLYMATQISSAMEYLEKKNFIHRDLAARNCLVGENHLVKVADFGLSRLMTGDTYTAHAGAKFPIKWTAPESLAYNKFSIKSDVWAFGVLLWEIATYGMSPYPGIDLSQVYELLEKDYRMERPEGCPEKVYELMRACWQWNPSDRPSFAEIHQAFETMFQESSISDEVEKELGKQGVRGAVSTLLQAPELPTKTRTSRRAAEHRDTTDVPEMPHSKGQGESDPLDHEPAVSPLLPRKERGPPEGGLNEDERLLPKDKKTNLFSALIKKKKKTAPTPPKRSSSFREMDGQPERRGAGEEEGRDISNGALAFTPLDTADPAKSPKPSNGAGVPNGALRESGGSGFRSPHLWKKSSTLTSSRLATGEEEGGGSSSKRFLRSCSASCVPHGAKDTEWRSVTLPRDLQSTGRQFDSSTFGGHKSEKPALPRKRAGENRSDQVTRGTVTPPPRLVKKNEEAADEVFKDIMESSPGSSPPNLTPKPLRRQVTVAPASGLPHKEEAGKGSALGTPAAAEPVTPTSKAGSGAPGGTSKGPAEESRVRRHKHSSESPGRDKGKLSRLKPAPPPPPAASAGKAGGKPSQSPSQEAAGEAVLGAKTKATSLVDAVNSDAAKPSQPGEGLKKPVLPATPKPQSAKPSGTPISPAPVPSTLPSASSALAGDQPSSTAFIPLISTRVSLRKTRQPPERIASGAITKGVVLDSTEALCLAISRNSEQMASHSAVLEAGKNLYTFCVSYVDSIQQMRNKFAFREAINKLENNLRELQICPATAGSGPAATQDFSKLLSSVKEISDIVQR
Measurement Protocol: Abl human kinase assay (glass-fiber filter)
Format: biochemical
Measurement Conditions: test concentration of 10^−6M

{"Compound String": "COc1ccc2cc1OCCCNC(=O)[C@H](CC(C)C)NC(=O)Cc1ccc(Cl)cc1Nc1cc(ncn1)N2", "Result": "2 (Score 2=30-60% inhibition)"}
{"Compound String": "COc1ccc2cc1OCCCCCCCOc1ccc(Br)cc1Nc1cc(ncn1)N2", "Result": "2 (Score 2=30-60% inhibition)"}
{"Compound String": "COc1ccc2cc1OCCCCCCOc1ccc(Br)cc1Nc1cc(ncn1)N2", "Result": "2 (Score 2=30-60% inhibition)"}

Recorded C1 score (inhibition of Abl human) (compound `Cl.Cl.O=C1CNC(=O)Cc2ccc(Cl)cc2Nc2cc(ncn2)Nc2ccc(OCCCN3CCOCC3)c(c2)OCCN1` ): 4 (Score 4=>80% inhibition)

Recorded C1 score (inhibition of Abl human) (compound `COc1ccc2cc1OCCNC(=O)[C@@H]1CCCN1Cc1cc(F)c(Cl)cc1Nc1nc(ncc1C#N)N2` ): 2 (Score 2=30-60% inhibition)
